# tested on: human 5-HT6 receptor (Homo sapiens)
# Construct: expressed in transfected cells; host or cells: HEK293
# Sequence (P50406 whole entry): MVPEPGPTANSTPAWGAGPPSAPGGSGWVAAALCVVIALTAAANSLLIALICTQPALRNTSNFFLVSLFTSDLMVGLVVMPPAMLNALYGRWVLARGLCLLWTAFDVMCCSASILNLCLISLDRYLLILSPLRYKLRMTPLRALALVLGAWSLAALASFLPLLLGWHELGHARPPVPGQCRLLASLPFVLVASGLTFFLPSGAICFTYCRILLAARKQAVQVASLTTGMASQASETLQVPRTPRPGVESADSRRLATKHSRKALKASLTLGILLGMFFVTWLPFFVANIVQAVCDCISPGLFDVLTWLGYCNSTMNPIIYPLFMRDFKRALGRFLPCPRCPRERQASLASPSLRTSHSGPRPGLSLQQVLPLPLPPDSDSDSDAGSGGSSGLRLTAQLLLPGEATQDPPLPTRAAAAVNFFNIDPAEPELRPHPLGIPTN
# assay summary: 5-HT6 binding assay ([3H]-LSD competition, SPA, membranes of transfected HEK293 cells)
# experimental parameters: competitive binding, [3H]-LSD radioligand, Ki calculated from IC50 (Cheng)
pKi: −log10 of the molar value. Where a name gives a salt, the structure may show the parent alone.

compound: COc1ccc(C)cc1S(=O)(=O)Nc1cc(O[C@@H]2CCNC[C@H]2F)c2occc2c1 (relative stereo) [Example 85, hydrochloride]
tested on: human 5-HT6 receptor (Homo sapiens)
pKi: 8.15
--
compound: CCN1CCC[C@@H]1CNc1cc(NS(=O)(=O)c2ccccc2C(F)(F)F)cc2ccoc12 [Example 67, hydrochloride]
tested on: human 5-HT6 receptor (Homo sapiens)
pKi: 7.89
--
compound: O=S(=O)(Nc1cc(O[C@@H]2CCNC[C@H]2F)c2occc2c1)c1ccccc1C(F)(F)F (relative stereo) [Example 87, hydrochloride]
tested on: human 5-HT6 receptor (Homo sapiens)
pKi: 8.28
--
compound: Cc1cccc(S(=O)(=O)Nc2cc(O[C@@H]3CCNC[C@H]3F)c3occc3c2)c1 (relative stereo) [Example 89, hydrochloride]
tested on: human 5-HT6 receptor (Homo sapiens)
pKi: 7.85
--
compound: COc1ccc(C)cc1NS(=O)(=O)c1cc(CN2CCNC(C)C2)c2occc2c1 (stereo not shown) [Example 92, hydrochloride]
tested on: human 5-HT6 receptor (Homo sapiens)
pKi: 8.25
--
compound: O=S(=O)(Nc1cc(O[C@@H]2CCNC[C@H]2F)c2occc2c1)c1cc(F)ccc1Cl (relative stereo) [Example 91, hydrochloride]
tested on: human 5-HT6 receptor (Homo sapiens)
pKi: 7.25
--
compound: COc1ccc(C)cc1S(=O)(=O)Nc1cc(O[C@H]2CCNC[C@H]2F)c2occc2c1 (relative stereo) [Example 84, hydrochloride]
tested on: human 5-HT6 receptor (Homo sapiens)
pKi: 8.12
--
compound: O=S(=O)(Nc1cc(O[C@H]2CCNC[C@H]2F)c2occc2c1)c1ccccc1C(F)(F)F (relative stereo) [Example 86, hydrochloride]
tested on: human 5-HT6 receptor (Homo sapiens)
pKi: 8.15
--
compound: O=S(=O)(Nc1cccc2cc(C3=CN4CCC3CC4)oc12)c1ccccc1 [Example 36, hydrochloride]
tested on: human 5-HT6 receptor (Homo sapiens)
pKi: 7.70
--
compound: COc1ccc(C)cc1S(=O)(=O)Nc1cc(CN2CCNCC2)c2occc2c1 [Example 54, hydrochloride]
tested on: human 5-HT6 receptor (Homo sapiens)
pKi: 7.76
